- SYSTEM UNDER TEST: Human neutrophil elastase (Homo sapiens)
- Sequence (P08246 30-267): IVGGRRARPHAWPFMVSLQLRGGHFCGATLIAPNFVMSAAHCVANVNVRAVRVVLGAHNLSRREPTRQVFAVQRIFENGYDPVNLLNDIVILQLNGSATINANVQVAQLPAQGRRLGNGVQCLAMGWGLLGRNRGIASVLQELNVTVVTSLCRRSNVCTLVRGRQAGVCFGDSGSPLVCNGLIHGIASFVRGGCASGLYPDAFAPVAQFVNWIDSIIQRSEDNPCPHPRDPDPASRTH
- ASSAY METHOD TEXT: Human Neutrophil Elastase Assay
- CONDITION CONTEXT: substrate MeOSuc-Ala-Ala-Pro-Val-AMC 250 μM, pH 7.5, fluorescence
MEASUREMENT KIND: IC50 (µM)

{"COMPOUND": "Cc1c(-c2ccnn2C)cc(C(=O)NCc2ccc(S(C)(=N)=O)cc2)c(=O)n1-c1cccc(C(F)(F)F)c1 (single isomer, unassigned) [Example 4B]", "SYSTEM UNDER TEST": "Human neutrophil elastase (Homo sapiens)", "RESULT UNITS": "µM", "IC50": 0.0415}
{"COMPOUND": "Cc1c(-c2ccnn2C)cc(C(=O)NCc2ccc(S(C)(=N)=O)cc2)c(=O)n1-c1cccc(C(F)(F)F)c1 (single isomer, unassigned) [Example 4A]", "SYSTEM UNDER TEST": "Human neutrophil elastase (Homo sapiens)", "RESULT UNITS": "µM", "IC50": 0.0939}

A. Cc1c(-c2ccnn2C)cc(C(=O)NCc2ccc(S(C)(=N)=O)cc2)c(=O)n1-c1cccc(C(F)(F)F)c1 (racemic) [Example 4]
B. Cc1c(-c2ccnn2C)cc(C(=O)NCc2ccc(S(C)(=O)=NC#N)cc2)c(=O)n1-c1cccc(C(F)(F)F)c1 (single isomer, unassigned) [Example 3B]
C. Cc1c(-c2ccnn2C)cc(C(=O)NCc2ccc(S(C)(=O)=NC#N)cc2)c(=O)n1-c1cccc(C(F)(F)F)c1 (single isomer, unassigned) [Example 3A]
Exercise: Hey, quick one: sort these by IC50, largest value first please. Answer format: the labels, ordered as requested.
Solution: A, C, B
(A: 0.173 µM, C: 0.0045 µM, B: 0.0023 µM)

A. CN=S(C)(=O)c1ccc(CNC(=O)c2cc(-c3ccnn3C)c(C)n(-c3cccc(C(F)(F)F)c3)c2=O)cc1 (stereo not shown)
B. CN=S(=O)(NCc1ccccc1)c1ccc(CNC(=O)c2cc(-c3ccnn3C)c(C)n(-c3cccc(C(F)(F)F)c3)c2=O)cc1 (stereo not shown)
C. Cc1c(-c2ccnn2C)cc(C(=O)NCc2ccc(/S(C)=N/C#N)cc2)c(=O)n1-c1cccc(C(F)(F)F)c1 (stereo not shown)
Exercise: Please list these compounds in decreasing order of IC50. Rank the items, then write their labels in that order.
Solution: A, B, C

P. Cc1c(-c2ccnn2C)nc(C(=O)NCc2ccc(S(C)(=O)=NC#N)cc2)c(=O)n1-c1cccc(C(F)(F)F)c1 (single isomer, unassigned)
Q. Cc1c(-c2ccnn2C)cc(C(=O)NCc2ccc(S(C)(=N)=N)cc2)c(=O)n1-c1cccc(C(F)(F)F)c1
Exercise: Input pair: P , Q . Output: entry with lower IC50. // return label of chosen record
Solution: P

# credit: patent US9221807B2
